Cited source for all entries: patent US20100267561A1

# Test system: wild oat (Avena fatua)
# methodDescription: Test B pre-/postemergence plant response
# Format: in vivo
# conditionParameters: Preemergence; 8 g ai/ha; scale 0 to 100
reportedMetric: Oat, Wild plant response rating
Keep the answer to the number alone.

> print(dat)
                                   compound  readoutnumber
1  Cc1cc(-c2ccc(Cl)cc2)nn1-c1c(OS(=O)(=O)c2ccc(Cl)s2)cnn(C)c1=O [Compound 55]              0
2  Cn1ncc(O)c(-n2nc(-c3ccc(Cl)cc3)cc2C2CC2)c1=O [Compound 45]             15
3  Cc1cc(-c2ccc(Cl)cc2)nn1-c1c(OS(=O)(=O)c2cccc3ccccc23)cnn(C)c1=O [Compound 47]              0

Shift focus to the following entry.
Ask: Name the recorded Oat, Wild plant response rating for Cc1cc(-c2ccc(Cl)cc2)nn1-c1c(OS(=O)(=O)c2ccccc2)cnn(C)c1=O [Compound 35] .
Result: 0

----------
Let's look at some compounds and their measured Plant response rating, Crabgrass, Large.
# Test system: large crabgrass (Digitaria sanguinalis)
# methodDescription: Test B pre-/postemergence plant response
# Format: in vivo
# conditionParameters: Postemergence, 31 g ai/ha; scale 0 to 100, 0 no effect, 100 complete control

For orientation, consider the following solved cases.
> print(dat)
                            substancesmiles                           reportedmetric  result
1  Cc1cc(-c2ccc(Cl)cc2)nn1-c1c(OC(=O)CC(C)C)cnn(C)c1=O  Plant response rating, Crabgrass, Large      85
2  Cc1cc(-c2ccc(C(F)(F)F)c(F)c2)nn1-c1c(O)c(C(F)(F)F)nn(C)c1=O  Plant response rating, Crabgrass, Large      90
3  Cc1cc(-c2ccc(Cl)cc2)nn1-c1c(OS(=O)(=O)c2ccccc2)cnn(C)c1=O  Plant response rating, Crabgrass, Large      80

Shift focus to the following entry.
Ask: Name the recorded Plant response rating, Crabgrass, Large for Cc1nn(C)c(=O)c(-n2nc(-c3ccc(Cl)cc3)cc2C)c1O .
Result: 90

----------
# Tested on: rice (Oryza sativa)
# methodDescription: Test B flooded paddy test plant response
# Assay type: in vivo
# conditionParameters: Flood (flooded paddy test), 125 g ai/ha; scale 0 to 100, 0 no effect, 100 complete control
reportedMetric: Plant response rating, Rice
Keep the answer to the number alone.

For orientation, consider the following solved cases.
> print(dat)
                            substancesmiles               reportedmetric  readoutnumber
1  Cc1ccc(-c2ccc(Cl)cc2)cc1-c1c(O)cnn(C)c1=O  Plant response rating, Rice             20
2  Cc1cc(-c2ccc(Cl)cc2)nn1-c1c(OS(=O)(=O)c2cccc3ccccc23)cnn(C)c1=O  Plant response rating, Rice              0
3  Cc1cc(-c2ccc(Cl)cc2)nn1-c1c(OS(=O)(=O)C(C)C)cnn(C)c1=O  Plant response rating, Rice              0
4  Cc1cc(-c2ccc(Cl)cc2)nn1-c1c(OC(=O)CC(C)C)cnn(C)c1=O  Plant response rating, Rice             80
5  CCOC(=O)Oc1cnn(C)c(=O)c1-n1nc(-c2ccc(Cl)cc2)cc1C  Plant response rating, Rice              0

Ask: Name the recorded Plant response rating, Rice for CCc1cc(-c2ccc(Br)cc2)nn1-c1c(O)cnn(CC(F)(F)F)c1=O .
Result: 0

----------
Let's look at some compounds and their measured Plant response rating, Bluegrass.
# Tested on: annual bluegrass (Poa annua)
# methodDescription: Test C pre-/postemergence plant response
# Format: in vivo
# conditionParameters: Preemergence, 16 g ai/ha; scale 0 to 100 (0 no effect, 100 complete control)
Keep the answer to the number alone.

Ask: Name the recorded Plant response rating, Bluegrass for Cc1cc(-c2ccc(Cl)cc2)nn1-c1c(OC(=O)Oc2ccccc2)cnn(C)c1=O .
Result: 0

Ask: Name the recorded Plant response rating, Bluegrass for CCOC(=O)Oc1cnn(C)c(=O)c1-n1nc(-c2ccc(Cl)cc2)cc1C .
Result: 20

Ask: Name the recorded Plant response rating, Bluegrass for Cc1cc(-c2ccc(Cl)cc2)nn1-c1c(OC(=O)CC(C)C)cnn(C)c1=O .
Result: 35

Ask: Name the recorded Plant response rating, Bluegrass for Cc1cc(-c2ccc(Cl)cc2)nn1-c1c(OS(=O)(=O)c2ccc(Cl)s2)cnn(C)c1=O .
Result: 0

----------
# System: green foxtail (Setaria viridis)
# methodDescription: Test C pre-/postemergence plant response
# Assay type: in vivo
# conditionParameters: Postemergence, 62 g ai/ha; scale 0 to 100, 0 no effect, 100 complete control
# Excerpt: […] Treated plants and controls were maintained in a controlled growth environment for 15 to 25 days after which time all species were compared to controls and visually evaluated. […]
Let's look at some molecules and their measured Plant response rating, Foxtail, Green.
Keep the answer to the number alone.

> print(dat)
                            substancesmiles  readoutnumber
1  CCCc1cc(-c2ccc(Cl)cc2)nn1-c1c(O)cnn(C)c1=O             98

Ask: Name the recorded Plant response rating, Foxtail, Green for Cc1cc(-c2ccc(Cl)cc2)nn1-c1c(OC(=O)CC(C)C)cnn(C)c1=O .
Result: 100

Ask: Name the recorded Plant response rating, Foxtail, Green for Cc1nn(C)c(=O)c(-n2nc(-c3ccc(Cl)cc3)cc2C)c1O .
Result: 98

Ask: Name the recorded Plant response rating, Foxtail, Green for CCOC(=O)Oc1cnn(C)c(=O)c1-n1nc(-c2ccc(Cl)cc2)cc1C .
Result: 100

----------
# Test system: green foxtail (Setaria viridis)
# methodDescription: Test B pre-/postemergence plant response
# Assay type: in vivo
# conditionParameters: Preemergence, 31 g ai/ha; 0 to 100 scale, 0 no effect, 100 complete control
Let's look at some compounds and their measured Plant response rating, Foxtail, Green.
Keep the answer to the number alone.

For orientation, consider the following solved cases.
> print(dat)
                            substancesmiles  readoutnumber
1  Cc1cc(-c2ccc(Cl)cc2)nn1-c1c(OC(=O)c2ccccc2Cl)cnn(C)c1=O            100
2  Cc1cc(-c2ccc(Cl)cc2)nn1-c1c(OC(=O)CC(C)C)cnn(C)c1=O            100
3  Cc1cc(-c2ccc(Cl)cc2)nn1-c1c(OC(=O)c2cccs2)cnn(C)c1=O            100

Shift focus to the following entry.
Ask: Name the recorded Plant response rating, Foxtail, Green for Cc1cc(-c2ccc(Cl)cc2)nn1-c1c(OS(=O)(=O)c2cccc3ccccc23)cnn(C)c1=O .
Result: 100

----------
# System: wheat (Triticum aestivum)
# methodDescription: Test A pre-/postemergence plant response
# Type: in vivo
# conditionParameters: Postemergence, 125 g ai/ha; 0 to 100 scale, 0 no effect, 100 complete control
I would appreciate it if you labelled entries Fulfilled when Plant response rating, Wheat is 70 or higher, otherwise Not fulfilled.

> print(dat)
                                   compound  assignedlabel
1  Cc1cc(-c2ccc(C(F)(F)F)c(F)c2)nn1-c1c(O)c(C(F)(F)F)nn(C)c1=O [Compound 44]      Fulfilled
2  CCc1cc(-c2ccc(C(F)(F)F)cc2)nn1-c1c(O)c(OC)nn(C)c1=O [Compound 66]      Fulfilled
3  CCc1cc(-c2ccc(Cl)c(Cl)c2)nn1-c1c(OC(=O)OC(C)C)cnn(C)c1=O [Compound 22]  Not fulfilled

Ask: Quick check: does Cc1cc(-c2ccc(Br)cc2)nn1-c1c(OC(=O)C2CC2)cnn(C)c1=O [Compound 5] have Plant response rating, Wheat greater than or equal to 70?
Result: Not fulfilled

Ask: Quick check: does Cc1cc(-c2ccc(OC(F)(F)F)cc2)nn1-c1c(O)cnn(C)c1=O [Compound 14] have Plant response rating, Wheat greater than or equal to 70?
Result: Not fulfilled

Ask: Quick check: does Cc1cc(-c2ccc(Cl)cc2)nn1-c1c(OS(=O)(=O)c2cccc3ccccc23)cnn(C)c1=O [Compound 47] have Plant response rating, Wheat greater than or equal to 70?
Result: Not fulfilled

Ask: Quick check: does CCc1cc(-c2ccc(Cl)cc2)nn1-c1c(O)cnn(C)c1=O [Compound 21] have Plant response rating, Wheat greater than or equal to 70?
Result: Not fulfilled

Ask: Quick check: does CCCC(=O)Oc1cnn(C)c(=O)c1-n1nc(-c2ccc(Cl)cc2)cc1C [Compound 56] have Plant response rating, Wheat greater than or equal to 70?
Result: Fulfilled

Ask: Quick check: does CSc1cc(-c2ccc(F)cc2)nn1-c1c(O)cnn(C)c1=O [Compound 23] have Plant response rating, Wheat greater than or equal to 70?
Result: Not fulfilled
